Reported values of corrected association response for individual entries
Target: T1, human 5T4ECDHis (mature protein of SEQ ID NO: 99) (human, UniProt Q13641 32-355)
T1 construct: ECD of human 5T4 (aa 1-355 of Uniprot Q13641) with C-terminal His tag; residues 1-31 are the signal peptide; also called ECD of human 5T4 with a C-terminal His tag
T1 sequence: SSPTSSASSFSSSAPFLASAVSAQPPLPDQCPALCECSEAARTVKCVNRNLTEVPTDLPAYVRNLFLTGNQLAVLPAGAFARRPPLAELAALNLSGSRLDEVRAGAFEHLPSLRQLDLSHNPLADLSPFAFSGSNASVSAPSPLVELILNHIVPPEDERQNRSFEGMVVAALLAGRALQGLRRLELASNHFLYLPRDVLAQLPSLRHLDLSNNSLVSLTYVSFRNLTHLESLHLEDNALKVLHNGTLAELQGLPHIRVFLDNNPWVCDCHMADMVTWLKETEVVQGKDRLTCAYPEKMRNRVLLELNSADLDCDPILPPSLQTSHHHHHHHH
Assay: BLI cross-block; competitor (immobilised): IgG1-5T4-059-FEAR
TEST READOUT: corrected association response

BINDER	TEST READOUT	RESULT
IgG1-5T4-207-FEAR (antibody, V domains shown, Monospecific, bivalent IgG1 FEAR) VH: QVQLQQWGAGLLKPSETLSLTCAVYGGSFSGYYWTWIRQPPGKGLEWIGEIDHSESTNYNPSLKSRVTISVDTSKNQFSLKLSSVTAADTAVYYCAGWFGELYHYYYGMDVWGQGTTVTVSS VL: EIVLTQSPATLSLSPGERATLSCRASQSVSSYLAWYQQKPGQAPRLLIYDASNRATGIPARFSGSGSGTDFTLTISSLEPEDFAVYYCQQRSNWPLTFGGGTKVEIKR	corrected association response	0.02 nm
IgG1-5T4-106-FEAR (antibody, V domains shown, Monospecific, bivalent human IgG1 kappa with L234F, L235E, D265A, K409R (FEAR)) VH: EVQLVQSGAEVKKPGESLKISCKGSGYRFTSYWIGWVRQMPGKGLEWMGIIYPGDSDARYSPSFQGQVTISADKSISTAYLQWSSLKASDTGMYYCARSVLFDYWGQGTLVTVSS VL: AIQLTQSPSSLSASVGDRVTITCRASQGISSALAWYQQKPGKAPKLLIYDVSNLESGVPSRFSGSGSGTDFTLTISSLQPEDFATYYCQQFNSYPHTFGQGTKLEIK	corrected association response	0.01 nm
IgG1-5T4-085-FEAR (antibody, V domains shown, Monospecific, bivalent human IgG1 kappa with L234F, L235E, D265A, K409R (FEAR)) VH: EVQLLESGGGLVQPGGSLRLSCAASGFTFSSYAMSWVRQAPGKGLEWVSAISGSGGSTYNADSVKGRFTIFRDNSKNTLYLHMNSLRAEDTAVYYCARDPGYNNVEYLDHWGQGTLVTVSS VL: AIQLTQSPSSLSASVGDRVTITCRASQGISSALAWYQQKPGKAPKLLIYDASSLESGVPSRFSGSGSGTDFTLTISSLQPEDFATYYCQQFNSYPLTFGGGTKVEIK	corrected association response	-0.02 nm
